Structures can show the parent of a compound that is named as a salt.
readout.type: melting point

Example entries and their recorded answers appear below.
molecule | melting point
Fc1ccc(-c2nc(-c3cccnc3)cs2)cc1 (as salt: HBr) [Compound 136] | 225 to 227 °C
FC(F)(F)c1ccncc1-c1nc(-c2ccc(Br)cc2)cs1 [Compound 53] | 69 to 71 °C
Cc1ccncc1-c1csc(-c2ccc(F)cc2)n1 (as salt: HCl) [Compound 137] | 180 to 183 °C
NC(=O)c1ccc(-c2csc(-c3cnccc3C(F)(F)F)n2)cc1 [Compound 164] | 192 to 193 °C
CS(=O)(=O)Nc1ccc(-c2csc(-c3cnccc3C(F)(F)F)n2)cc1.Cl | 205 to 207 °C

(Q) What value of measured melting point is listed for CNC(=O)c1cc(-c2nc(-c3cnccc3C)cs2)ccc1Cl [Example 34] ?
(A) 127 to 129 °C

(Q) Item: NC(=O)CNc1ccncc1-c1nc(-c2ccc(Cl)cc2)cs1 [Compound 144]
(A) 202 °C

(Q) Similarly, CN(C)C(=O)c1ccncc1-c1nc(-c2ccc(Cl)cc2)cs1 [Compound 146] ?
(A) 195 °C

(Q) Moving on to the next molecule: COc1ccc(-c2csc(-c3cnccc3C(F)(F)F)n2)cc1 (as salt: HCl) [Compound 64]
(A) 93 to 95 °C

(Q) Check Cc1ccncc1-c1csc(-c2cccc(C(=O)N(C)C)c2)n1 [Example 27] too.
(A) 106 to 108 °C

(Q) Lookup Cc1ccncc1-c1nc(-c2ccc(Cl)cc2)c(Cl)s1 [Compound 150]
(A) 146 °C

(Q) Again, but for CC(C)(O)c1ccncc1-c1nc(-c2ccc(Cl)cc2)cs1 [Compound 145]
(A) 146 °C

(Q) Same lookup for NS(=O)(=O)c1ccc(-c2csc(-c3cnccc3C(F)(F)F)n2)cc1 [Compound 155] , please.
(A) 217 °C

(Q) Now the same for NC(=O)c1ccncc1-c1nc(-c2ccc(Cl)cc2)cs1 [Compound 147]
(A) 201 °C

(Q) Now the molecule Cc1ccncc1-c1nc(-c2ccc(C(N)=O)cc2)cs1 [Compound 165]
(A) 222 to 225 °C

(Q) Next up: CC(=O)Nc1cccc(-c2csc(-c3cnccc3C(F)(F)F)n2)c1.Cl
(A) 154 to 155 °C

(Q) Next up: Cc1ccncc1-c1csc(-c2cc(C(=O)N3CCCC3)ccc2C)n1 [Example 32]
(A) 149 to 150 °C

(Q) Ok, now CC(=O)Nc1ccc(-c2nc(-c3cnccc3C)cs2)cc1 [Example 36]
(A) 205 to 207 °C

(Q) Now give it for Cc1ccncc1-c1csc(-c2ccc(S(N)(=O)=O)cc2)n1 [Compound 135] too.
(A) 192 to 195 °C
